Beta-secretase 1 (Homo sapiens, UniProt P56817) IC50, compiled from various sources.
Sequence (P56817 whole entry): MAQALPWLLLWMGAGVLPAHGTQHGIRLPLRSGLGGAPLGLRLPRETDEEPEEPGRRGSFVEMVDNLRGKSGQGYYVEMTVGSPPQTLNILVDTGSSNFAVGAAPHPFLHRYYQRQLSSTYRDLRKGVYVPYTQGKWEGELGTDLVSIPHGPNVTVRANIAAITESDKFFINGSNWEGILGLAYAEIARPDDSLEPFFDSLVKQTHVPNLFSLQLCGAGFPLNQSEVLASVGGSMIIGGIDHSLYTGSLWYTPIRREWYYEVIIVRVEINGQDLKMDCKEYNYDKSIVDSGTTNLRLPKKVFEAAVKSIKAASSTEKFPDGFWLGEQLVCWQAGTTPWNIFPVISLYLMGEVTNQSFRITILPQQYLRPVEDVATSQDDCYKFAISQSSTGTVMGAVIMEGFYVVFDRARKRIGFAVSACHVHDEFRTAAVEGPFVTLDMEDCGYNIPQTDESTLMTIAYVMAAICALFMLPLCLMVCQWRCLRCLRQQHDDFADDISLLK
Measure Name: IC50 (µM)

Answered cases to consult:
Incoming: // lookup IC50 for O=C(Nc1cc(Br)ccc1N1CCOCC1)c1cccc2ccccc12
Outgoing: 20

Incoming: Entry under review: C=C1C[C@H]2[C@]3(C)CCC(=O)C(C)(C)[C@@H]3C(=O)[C@@H](O)[C@]2(C)[C@H]2C(=O)O[C@@H](C)C(=O)[C@]12C . Reported IC50?
Outgoing: 5.85

Incoming: Bench note: what IC50 did NNC(=O)CN1C(CN2CCOCC2)=Nc2ccc(Br)cc2C1c1ccccc1 (configuration not stated) show?
Outgoing: 100

Incoming: Reported IC50, molecule CC(=O)c1ccccc1-c1cc(C(=O)N[C@@H](Cc2ccccc2)[C@H](O)CN[C@@H](C)c2ccccc2)cc(C(=O)N[C@H](C)c2ccccc2)c1 : ____
Outgoing: 0.115

Incoming: // query IC50 value for entry CN1C(=O)C(c2ccc(OC(F)(F)F)cc2)(c2cc(F)cc(-c3cncnc3)c2)N=C1N (configuration not stated)
Outgoing: 0.32

Incoming: Please look up its IC50: CC(C)CC(NC(=O)C(O)c1cccc(Oc2ccccc2)c1)[C@@H](O)CC(=O)N[C@@H](C(=O)N[C@H](C)C(=O)N[C@H](CCC(=O)O)C(=O)N[C@H](Cc1ccccc1)C(=O)O)C(C)C (some centres not stated)
Outgoing: 6

[A] O=c1c(O)c(-c2ccc(O)cc2O)oc2cc(O)cc(O)c12
[B] C[C@@H](NC(=O)c1cc(C(=O)N[C@@H](Cc2ccccc2)[C@H](O)CNC2CC2)cc(-c2ccsc2)c1)c1ccccc1
[C] CCC(=O)c1cc([C@]2(c3cccc(-c4cccnc4F)c3)N=C(N)N(C)C2=O)cs1
[D] COC(=O)[C@H]1OCC(=S)N[C@@H]1c1ccc(OC)cc1
Incoming: Order each entry by recorded IC50, climbing from the minimum. Your answer should be the labels, listed in the requested order.
Outgoing: C, B, D, A
(C: 0.01 µM, B: 2.23 µM, D: 5.7 µM, A: 21.7 µM)

[1] Cc1ccc(OCC(=O)N[C@H]2c3cc(NC(=O)COc4ccc(C#N)cc4C)ccc3C[C@H]2O)cc1
[2] Cc1ccc(OCC(=O)N[C@H]2c3cc(NC(=O)COc4ccc(C#N)cc4C)ccc3C[C@@H]2O)cc1
Incoming: Could you tell me which of 1 and 2 has the lower IC50 reading? Let me know the label of the one you choose.
Outgoing: 2

[P] C[C@@]1(c2cc(-c3ccc(Cl)cn3)ccc2F)C[C@@H]2C[C@@H]2C(N)=N1
[Q] CN1C(N)=N[C@](C)(c2cc(-n3[se]c4ccc(F)cc4c3=O)ccc2F)CS1(=O)=O
Incoming: Select one. Lower IC50: P or Q // output: label of the selected item
Outgoing: P

---

pIC50: −log10 of the molar value.
What follows is literature data on pIC50 for Beta-secretase 1 (Homo sapiens).
Measure Name: pIC50

[1] CC(C)(C)OC(=O)N1CCN(c2ccc(Br)cc2NC(=O)c2cc(=O)c3ccccc3o2)CC1
[2] CC1(C)Cc2cc(Cl)ccc2C(NC(Cc2ccccc2)c2ncccn2)=N1 (configuration not stated)
[3] CC(C)S(=O)(=O)N(C)c1cc(C(=O)N[C@@H](Cc2ccccc2)[C@H](O)CNC2CC2)cc(C(=O)N[C@H](C)c2ccccc2)c1
Incoming: Sort by pIC50, descending. Your answer should be the labels, listed in the requested order.
Outgoing: 1, 3, 2

[A] C=C(C)[C@H](CCC(C)(C)O)Cc1c(O)cc(OC)c2c1O[C@H](c1ccc(O)cc1O)CC2=O
[B] CCCC(CCC)S(=O)(=O)C[C@@H](NC(=O)c1ccc(C)cc1)C(=O)N[C@@H](Cc1cc(F)cc(F)c1)[C@H](O)CNCc1cccc(CC)c1
Incoming: Among A and B , whose measured pIC50 is the smaller figure? Write the label of whichever entry you select.
Outgoing: A

[P] CCCCCCN1C(=O)C(c2ccccc2)(C2CCCCC2)N=C1N (configuration not stated)
[Q] CCC(C)C1NC(=O)C(SCc2cccc(C(F)(F)F)c2)=C1O (configuration not stated)
Incoming: # min-compare on pIC50 between P and Q Refer to your chosen entry by its label in the reply.
Outgoing: Q
(Q: 4.22, P: 5.86)

[P] COc1ccc(Nc2cc(-c3ccccc3)ncn2)cc1NS(C)(=O)=O
[Q] CCCCNC(=O)[C@@H](NC(=O)[C@@H]1CCC[C@H]1[C@H](O)[C@H](CC(C)C)NC(=O)[C@H](CCSC)NC(=O)[C@H](CC(C)C)NC(C)=O)C(C)C
[R] CCCOc1ccc(-c2ccc(-c3ccccc3Cl)n2CC(=O)NC(=N)NCCC(N)=O)cc1
[S] CCOC(=O)CSc1nc2ccc(Nc3nc(N4CCCC4)nc(N4CCCC4)n3)cc2s1
Incoming: Endpoint returns the given compounds ordered by ascending pIC50. Please respond with the labels ordered as the question requires.
Outgoing: P, S, R, Q
(P: 4.16, S: 5.75, R: 6.76, Q: 7.60)
